B1: Hairpin Ribozyme (parent)
chain: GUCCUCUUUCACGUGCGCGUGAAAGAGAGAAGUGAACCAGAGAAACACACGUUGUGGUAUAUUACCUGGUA

# Variants of: B1
# Protocol description: self-cleavage, relative activity (ratio to wild type); higher = more cleavage; co-transcriptional
Decide using self-cleavage: a value greater than or equal to 0.6 is Criterion met, a smaller one is Criterion not met.

[
  {
    "Variant descriptor": "U9C C38G",
    "Label value": "Criterion not met"
  },
  {
    "Variant descriptor": "C10A A43C",
    "Label value": "Criterion not met"
  },
  {
    "Variant descriptor": "G1U A59C",
    "Label value": "Criterion not met"
  },
  {
    "Variant descriptor": "G1C U9G",
    "Label value": "Criterion not met"
  },
  {
    "Variant descriptor": "C12A C50U",
    "Label value": "Criterion not met"
  }
]

Prompt: Tell me whether self-cleavage is at least 0.6 here: U20G U60A
Completion: Criterion met

Prompt: Tell me whether self-cleavage is at least 0.6 here: C6G U63G
Completion: Criterion not met

Prompt: Tell me whether self-cleavage is at least 0.6 here: G40A U70G
Completion: Criterion not met

Prompt: Tell me whether self-cleavage is at least 0.6 here: G51A U52C
Completion: Criterion met

Prompt: Tell me whether self-cleavage is at least 0.6 here: C12G A28C
Completion: Criterion not met
